The measurements presented in this section are drawn from patent US20040014047A1.

System: human LIM domain kinase 1 mRNA
experimental details: Antisense inhibition of human LIM domain kinase 1 mRNA levels, quantitative real-time PCR, A549 cells (screen)
Assay type: cell-based
stated conditions: quantitative real-time PCR, averages from two experiments, screening concentration not given (50 nM to 300 nM used herein)
Strand notation (5' to 3'): a small letter for the sugar, then the base; units joined by * are phosphorothioate-linked, units joined directly phosphodiester-linked; [ ] holds rarer units or linkages, { } end groups; capitals alone tell only the bases. e = 2'-O-(2-methoxyethyl) (MOE); [5mC] = 5-methylcytosine; d = 2'-deoxy (DNA)
Reported % INHIB (inhibition of human LIM domain kinase 1 mRNA levels) values follow for various substances
Kindly provide the numeric value in % only, without the unit symbol.

[ask] Quick one: % INHIB (inhibition of human LIM domain kinase 1 mRNA levels) of 206185 (antisense eG*e[5mC]*e[5mC]*eA*eT*dT*dG*dA*dT*dT*dT*d[5mC]*d[5mC]*dA*dA*eG*eA*eT*e[5mC]*e[5mC]) [compound 206185] ?
[reply] 86

[ask] Name the reported % INHIB (inhibition of human LIM domain kinase 1 mRNA levels) value associated with the substance 206191 (antisense e[5mC]*eT*e[5mC]*eA*eA*dG*dA*d[5mC]*dA*dG*dG*dT*dT*dT*d[5mC]*eT*eG*e[5mC]*e[5mC]*eG) [compound 206191]
[reply] 62

[ask] Sample 206231 (antisense eG*e[5mC]*eA*eG*eT*dG*d[5mC]*d[5mC]*d[5mC]*dG*d[5mC]*dT*dG*d[5mC]*dA*eA*eG*eA*eG*e[5mC]) [compound 206231] — what was its % INHIB (inhibition of human LIM domain kinase 1 mRNA levels)?
[reply] 76

[ask] Name the reported % INHIB (inhibition of human LIM domain kinase 1 mRNA levels) value associated with the substance 206178 (antisense eA*eG*eT*eA*e[5mC]*dA*dG*d[5mC]*dT*dT*dG*dG*dA*dG*dT*eG*e[5mC]*eT*e[5mC]*e[5mC]) [compound 206178]
[reply] 69

[ask] What does the data say about its % INHIB (inhibition of human LIM domain kinase 1 mRNA levels)? Entry: 206203 (antisense eT*eT*eG*eT*eG*dG*dG*dA*dG*dT*dT*dG*dA*dG*dG*eT*e[5mC]*eT*e[5mC]*eG) [compound 206203]
[reply] 55

###

System: human LIM domain kinase 1 mRNA
experimental details: Antisense inhibition of human LIM domain kinase 1 mRNA levels, quantitative real-time PCR, A549 cells (screen)
Type: cell-based
stated conditions: quantitative real-time PCR, averages from two experiments, screening concentration not given (50 nM to 300 nM used herein)
Strand notation (5' to 3'): a small letter for the sugar, then the base; units joined by * are phosphorothioate-linked, units joined directly phosphodiester-linked; [ ] holds rarer units or linkages, { } end groups; capitals alone tell only the bases. e = 2'-O-(2-methoxyethyl) (MOE); [5mC] = 5-methylcytosine; d = 2'-deoxy (DNA)
% INHIB (inhibition of human LIM domain kinase 1 mRNA levels) for assorted substances
Respond numerically; units are % and should not be typed.

See these solved cases before continuing.
substance="206182 (antisense eG*eG*eA*eA*eT*dT*d[5mC]*dT*dT*d[5mC]*dA*d[5mC]*dA*dT*d[5mC]*eT*eG*eG*eG*e[5mC]) [compound 206182]" target_system="human LIM domain kinase 1 mRNA" experimental_result=86
substance="206209 (antisense e[5mC]*eT*e[5mC]*eT*eG*dG*dG*d[5mC]*d[5mC]*dA*d[5mC]*dG*dG*d[5mC]*dA*eG*eA*eG*eA*eG) [compound 206209]" target_system="human LIM domain kinase 1 mRNA" experimental_result=80

[ask] Which % INHIB (inhibition of human LIM domain kinase 1 mRNA levels) value is on record for 206206 (antisense e[5mC]*eG*e[5mC]*e[5mC]*eG*dG*dT*dA*dG*dG*dT*d[5mC]*dT*d[5mC]*d[5mC]*e[5mC]*eA*eG*eA*eA) [compound 206206] ?
[reply] 28

[ask] Which % INHIB (inhibition of human LIM domain kinase 1 mRNA levels) is reported for this substance? 206214 (antisense e[5mC]*e[5mC]*eG*eG*e[5mC]*d[5mC]*dA*dG*dG*dG*d[5mC]*dA*d[5mC]*d[5mC]*dG*e[5mC]*eA*eG*e[5mC]*eT) [compound 206214]
[reply] 87

[ask] Any idea what its % INHIB (inhibition of human LIM domain kinase 1 mRNA levels) is? The substance is 206163 (eG*eT*e[5mC]*eA*eA*d[5mC]*d[5mC]*dT*d[5mC]*dA*dT*dG*d[5mC]*dA*d[5mC]*eT*e[5mC]*eG*eA*e[5mC]; antisense) [compound 206163]
[reply] 79

###

System: LIM domain kinase 1 mRNA
experimental details: Antisense inhibition of LIM domain kinase 1 expression, dose response in A549 cells, real-time quantitative PCR
Assay type: cell-based, human
stated conditions: dose 25 nM, averaged from two experiments, normalized to untreated control
Strand notation (5' to 3'): a small letter for the sugar, then the base; units joined by * are phosphorothioate-linked, units joined directly phosphodiester-linked; [ ] holds rarer units or linkages, { } end groups; capitals alone tell only the bases. e = 2'-O-(2-methoxyethyl) (MOE); [5mC] = 5-methylcytosine; d = 2'-deoxy (DNA)
Percent Inhibition of LIM Domain Kinase 1 mRNA Levels listing for selected substances.
Unit % implied. Number only.

Reference set, count: 4
substance="206214 (antisense e[5mC]*e[5mC]*eG*eG*e[5mC]*d[5mC]*dA*dG*dG*dG*d[5mC]*dA*d[5mC]*d[5mC]*dG*e[5mC]*eA*eG*e[5mC]*eT) [compound 206214]" experimental_result=46
substance="129695 (eT*eT*e[5mC]*eT*eA*d[5mC]*d[5mC]*dT*d[5mC]*dG*d[5mC]*dG*d[5mC]*dG*dA*eT*eT*eT*eA*e[5mC]) [compound 129695]" experimental_result=0
substance="206212 (antisense eA*e[5mC]*eT*e[5mC]*e[5mC]*d[5mC]*d[5mC]*dA*dT*dT*dT*dG*dG*dT*dT*e[5mC]*e[5mC]*eT*eG*eG) [compound 206212]" experimental_result=73
substance="114845 (eT*eA*e[5mC]*eG*eT*d[5mC]*d[5mC]*dG*dG*dA*dG*dG*d[5mC]*dG*dT*eA*e[5mC]*eG*e[5mC]*e[5mC]) [compound 114845]" experimental_result=0

--- query ---
[ask] Which Percent Inhibition of LIM Domain Kinase 1 mRNA Levels is reported for this substance? 206219 (antisense eT*eG*e[5mC]*eA*e[5mC]*dT*dG*dA*dG*dA*dA*dA*dG*d[5mC]*dT*eT*e[5mC]*eA*e[5mC]*eA) [compound 206219]
[reply] 67

###

Tested on: human LIM domain kinase 1 mRNA
experimental details: Antisense inhibition of human LIM domain kinase 1 mRNA levels, quantitative real-time PCR, A549 cells (screen)
Assay type: cell-based
stated conditions: quantitative real-time PCR, averages from two experiments, screening concentration not given (50 nM to 300 nM used herein)
Strand notation (5' to 3'): a small letter for the sugar, then the base; units joined by * are phosphorothioate-linked, units joined directly phosphodiester-linked; [ ] holds rarer units or linkages, { } end groups; capitals alone tell only the bases. e = 2'-O-(2-methoxyethyl) (MOE); [5mC] = 5-methylcytosine; d = 2'-deoxy (DNA)
measured attribute: % INHIB (inhibition of human LIM domain kinase 1 mRNA levels)
Please don't drop the unit; write it after the number.

As a guide, the following entries are already answered.
substance="206168 (eT*e[5mC]*eT*e[5mC]*e[5mC]*d[5mC]*dA*dT*dA*d[5mC]*dG*dT*dT*d[5mC]*dT*eT*e[5mC]*e[5mC]*e[5mC]*eT; antisense) [compound 206168]" target_system="human LIM domain kinase 1 mRNA" experimental_result=36%
substance="206176 (antisense e[5mC]*eG*e[5mC]*e[5mC]*eA*dT*dA*dG*d[5mC]*dG*dG*dG*d[5mC]*d[5mC]*d[5mC]*eA*eG*eT*eA*eG) [compound 206176]" target_system="human LIM domain kinase 1 mRNA" experimental_result=87%

// next item, % INHIB (inhibition of human LIM domain kinase 1 mRNA levels) requested
[ask] Request the reported % INHIB (inhibition of human LIM domain kinase 1 mRNA levels) associated with 206165 (e[5mC]*e[5mC]*e[5mC]*eT*e[5mC]*d[5mC]*dA*dG*dG*dT*dG*d[5mC]*dA*dA*d[5mC]*eA*eA*eA*eG*eT) [compound 206165]
[reply] 22%

###

Tested on: LIM domain kinase 1 mRNA
experimental details: Antisense inhibition of LIM domain kinase 1 expression, dose response in A549 cells, real-time quantitative PCR
Type: cell-based, human
stated conditions: dose 100 nM, averaged from two experiments, normalized to untreated control
Strand notation (5' to 3'): a small letter for the sugar, then the base; units joined by * are phosphorothioate-linked, units joined directly phosphodiester-linked; [ ] holds rarer units or linkages, { } end groups; capitals alone tell only the bases. e = 2'-O-(2-methoxyethyl) (MOE); [5mC] = 5-methylcytosine; d = 2'-deoxy (DNA)
# key: entry, value: Percent Inhibition of LIM Domain Kinase 1 mRNA Levels
Answer as a quantity: numeral, then unit.

[ask] Field request: Percent Inhibition of LIM Domain Kinase 1 mRNA Levels | item: 206219 (antisense eT*eG*e[5mC]*eA*e[5mC]*dT*dG*dA*dG*dA*dA*dA*dG*d[5mC]*dT*eT*e[5mC]*eA*e[5mC]*eA) [compound 206219]
[reply] 84%

[ask] Can you look up the measured Percent Inhibition of LIM Domain Kinase 1 mRNA Levels of 114845 (eT*eA*e[5mC]*eG*eT*d[5mC]*d[5mC]*dG*dG*dA*dG*dG*d[5mC]*dG*dT*eA*e[5mC]*eG*e[5mC]*e[5mC]) [compound 114845] for me?
[reply] 0%

[ask] Any idea what Percent Inhibition of LIM Domain Kinase 1 mRNA Levels was measured for 206214 (antisense e[5mC]*e[5mC]*eG*eG*e[5mC]*d[5mC]*dA*dG*dG*dG*d[5mC]*dA*d[5mC]*d[5mC]*dG*e[5mC]*eA*eG*e[5mC]*eT) [compound 206214] ?
[reply] 84%

[ask] # query: Percent Inhibition of LIM Domain Kinase 1 mRNA Levels of entry 206212 (antisense eA*e[5mC]*eT*e[5mC]*e[5mC]*d[5mC]*d[5mC]*dA*dT*dT*dT*dG*dG*dT*dT*e[5mC]*e[5mC]*eT*eG*eG) [compound 206212]
[reply] 91%

[ask] What value of measured Percent Inhibition of LIM Domain Kinase 1 mRNA Levels is listed for 129695 (eT*eT*e[5mC]*eT*eA*d[5mC]*d[5mC]*dT*d[5mC]*dG*d[5mC]*dG*d[5mC]*dG*dA*eT*eT*eT*eA*e[5mC]) [compound 129695] ?
[reply] 12%
